- experiment.description: CCTE_Shafer_MEA_acute_synchrony_index: CCTE's Neural Acute Assay for Synchrony, Shafer Lab (AID 2284027);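 also: network synchrony index of spontaneous spiking in primary rat cortical neurons on MEAs; fitted for loss of signal so actives lower synchrony relative to DMSO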
The source made the active and inactive calls. The calls were made as follows: active = hit-call score of the fitted dose curve at least 0.9, where 1 is the maximum; inactive = score below 0.9.
Response enum: active, inactive

Before answering, review these 5 worked examples.
compound.string	discrete.label
Cc1ccc2ncccc2c1	inactive
O=C(O)CCCCC(=O)O	inactive
C[Si]1(C)O[Si](C)(C)O[Si](C)(C)O[Si](C)(C)O1	inactive
CC(C)(C)c1cc(O)c(C(C)(C)C)cc1O	inactive
CN1CCCC1=O	inactive

Per the records of this test, what outcome belongs to Cc1ccc(C(C)C)c(O)c1 ?
inactive

Same read-out for Cc1ccc(C)c(O)c1C ?
active

Same read-out for CCCCCCCCCCO ?
active

Same read-out for CC(=O)Oc1ccccc1C(=O)O ?
inactive

Same read-out for CCOC(=O)C(C)(C)Oc1ccc(Cl)cc1 ?
inactive

Same read-out for Nc1nc(N)c2nc(CNc3ccc(C(=O)N[C@@H](CCC(=O)O)C(=O)O)cc3)cnc2n1 ?
inactive

Same read-out for FC(F)(F)C(F)(F)C(F)(F)C(F)(F)C(F)(F)C(F)(F)CCI ?
inactive

Same read-out for Clc1cc(Cl)c(Cl)cc1Cl ?
inactive

Same read-out for CCCc1cc(=O)[nH]c(=S)[nH]1 ?
inactive

Attribution: PubChem BioAssay (EPA / NIEHS)
